Assay: In vivo pharmacokinetic parameters of (R)-HZ05
Design: species or system C57B1/6N mice
Conditions: female, C57B1/6N, mouse, plasma, sc; mice; s.c, dose 50 mg kg-1
Description: Waters Acquity UPLC (Waters Corp.) was used for all LC/MS and LC/MS/MS experiments. For chromatographic separation a general gradient was used (5 % mobile phase B to 90 % over 2 min total run) on a C18 BEH 1.7 µm column 2 × 50 mm (Waters Corp.). Mobile phase A consisted of 5 % acetonitrile 0.1 % formic acid and mobile phase B 100 % acetonitrile 0.1 % formic acid. The flow rate was 0.5 mL min-1 and 3 µL of the sample was injected. A standard curve between 3−1000 nM was prepared for each compound. […]
Measured Metric: AUC(0-inf) (µM·h)

compound="O=C(N[C@@H]1CCCc2c1cnn2-c1ccccc1F)c1onc2c1CCCC2 [(R)-HZ05]" measured_metric=AUC(0-inf) scale_unit=µM·h test_value=30

Values compiled from paper PMC5856786.
